Entry source: ChEMBL document CHEMBL1150473

# TARGET ENTITY: Tubulin alpha chain (Sus scrofa)
# EXPERIMENT: Evaluated for ability to initiate the polymerization of tubulin in the microtubule assembly assay expressed as ED50(compound) / ED50(taxol)
# Type: functional
The threshold is 1. Values of ED50 ratio beneath it are tagged class 1; values meeting or exceeding it are tagged class 0.

hey, is ED50 ratio for CC(=O)O[C@H]1C(=O)[C@@]2(C)[C@H]([C@H](OC(=O)c3ccccc3)[C@]3(O)C[C@H](OC(=O)[C@H](O)[C@@H](NC(=O)CC(C)C)c4ccccc4)C(C)=C1C3(C)C)[C@]1(OC(C)=O)CO[C@@H]1C[C@@H]2O lower than 1 or not?
class 0

Determine if CC(=O)O[C@H]1C(=O)[C@@]2(C)[C@H]([C@H](OC(=O)c3ccccc3)[C@]3(O)C[C@H](OC(=O)[C@H](O)[C@@H](NC(=O)c4c(F)c(F)c(N=[N+]=[N-])c(F)c4F)c4ccccc4)C(C)=C1C3(C)C)[C@]1(OC(C)=O)CO[C@@H]1C[C@@H]2O shows ED50 ratio strictly lower than 1.
class 0

Strictly below 1: is that where ED50 ratio of CC(=O)O[C@H]1C(=O)[C@@]2(C)[C@H]([C@H](OC(=O)c3ccccc3)[C@]3(O)C[C@H](OC(=O)[C@H](O)[C@@H](NC(=O)CC(C)(C)C)c4ccccc4)C(C)=C1C3(C)C)[C@]1(OC(C)=O)CO[C@@H]1C[C@@H]2O sits?
class 1

Please check: ED50 ratio for CC(=O)O[C@@]12CO[C@@H]1C[C@H](O)[C@@]1(C)C(=O)[C@H](O)C3=C(C)[C@@H](OC(=O)[C@H](O)[C@@H](NC(=O)OC(C)(C)C)c4ccccc4)C[C@@](O)([C@@H](OC(=O)c4ccccc4)[C@H]21)C3(C)C.O.O.O [DOCETAXEL] , strictly under 1 or not?
class 1

Given the entry CC(=O)O[C@H]1C(=O)[C@@]2(C)[C@H]([C@H](OC(=O)c3ccccc3)[C@]3(O)C[C@H](OC(=O)[C@H](O)[C@@H](NC(=O)C(C)(C)C)c4ccccc4)C(C)=C1C3(C)C)[C@]1(OC(C)=O)CO[C@@H]1C[C@@H]2O , would its reported ED50 ratio be below 1?
class 0
